In this section we review reported SI HSC-2 values for a set of compounds.
- System: HSC-2 cells
- methodSummary: Cytotoxicity against HSC-2 cells, MTT method, 48 h
- Format: cell-based, human
- recordedConditions: average CC50 towards HGF, HPLF, HPC divided by CC50 against HSC-2
Answer as a number with no unit attached.

Consider the worked cases shown below.
Q) Could you please provide reported SI HSC-2 for COc1ccc(/C=C2\CN(C(=O)CC[N+]3(C)CCC(=NO)CC3)C/C(=C\c3ccc(OC)cc3)C2=O)cc1 (stereo not shown) ? Thanks!
A) 18.7

Q) Find the measured SI HSC-2 of C[N+]1(CCC(=O)N2C/C(=C\c3ccc(Cl)cc3)C(=O)/C(=C/c3ccc(Cl)cc3)C2)CCC(=NO)CC1 (stereo not shown) and report it.
A) 67.3

Q) Please give the documented SI HSC-2 of `O=C1/C(=C/c2ccc(Cl)cc2)CN(C(=O)CCN2CCC(=NO)CC2)C/C1=C\c1ccc(Cl)cc1`
A) 20.5

Q) Annotate the compound C[N+]1(CCC(=O)N2C/C(=C\c3ccc(Cl)c(Cl)c3)C(=O)/C(=C/c3ccc(Cl)c(Cl)c3)C2)CCC(=NO)CC1 (stereo not shown) with its measured SI HSC-2.
A) 78.7

Q) Consider the compound Cc1ccc(/C=C2\CN(C(=O)CC[N+]3(C)CCC(=NO)CC3)C/C(=C\c3ccc(C)cc3)C2=O)cc1 (stereo not shown) and give its recorded SI HSC-2.
A) 20.8

***
Q) Consider the compound `O=C1/C(=C/c2ccc(F)cc2)CN(C(=O)CCN2CCC(=NO)CC2)C/C1=C\c1ccc(F)cc1` . State its measured SI HSC-2.
A) 14.3

Q) Return reported SI HSC-2. Input compound: `O=C1/C(=C/c2ccc([N+](=O)[O-])cc2)CN(C(=O)CCN2CCC(=NO)CC2)C/C1=C\c1ccc([N+](=O)[O-])cc1`
A) 27.3

FYI, the data here is from paper PMC8659243.
